Origin of measurements: the RNAGym collection of RNA variant scans (doi:10.7554/elife.80360)

B1: Hairpin Ribozyme (parent)
chain: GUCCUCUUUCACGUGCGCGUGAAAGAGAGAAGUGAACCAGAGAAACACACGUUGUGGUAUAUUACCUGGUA

# Variants of: B1
# experiment_summary: self-cleavage, relative activity (ratio to wild type); higher = more cleavage; co-transcriptional
self-cleavage below 0.2 gives n; self-cleavage at or above it gives y.

{"variant_id": "U7C C12A", "class_name": "y"}
{"variant_id": "U20C C66G", "class_name": "n"}
{"variant_id": "C50A U53C", "class_name": "y"}
{"variant_id": "G15U G56U", "class_name": "n"}
{"variant_id": "U2A A24C", "class_name": "n"}
{"variant_id": "U9A A71C", "class_name": "y"}
{"variant_id": "U5C C66U", "class_name": "y"}
{"variant_id": "G1U G25A", "class_name": "n"}
{"variant_id": "U58A C66U", "class_name": "y"}
{"variant_id": "C3A A23U", "class_name": "y"}
{"variant_id": "U5G G57A", "class_name": "n"}
{"variant_id": "C3U C10U", "class_name": "y"}
{"variant_id": "U20C A28C", "class_name": "y"}
{"variant_id": "G15C A36G", "class_name": "y"}
{"variant_id": "G21C A64C", "class_name": "n"}
{"variant_id": "A22C C65A", "class_name": "y"}
{"variant_id": "C18G U52C", "class_name": "y"}
{"variant_id": "G32U G57C", "class_name": "n"}
{"variant_id": "A31C A61U", "class_name": "n"}
{"variant_id": "G1U A45U", "class_name": "y"}
{"variant_id": "U33C A47G", "class_name": "y"}
{"variant_id": "C12A A41G", "class_name": "y"}
{"variant_id": "C38G U53A", "class_name": "n"}
{"variant_id": "A28U A59C", "class_name": "n"}
{"variant_id": "G13A A61U", "class_name": "n"}
{"variant_id": "C6U U70A", "class_name": "y"}
{"variant_id": "U9A G27U", "class_name": "y"}
{"variant_id": "G21A G34A", "class_name": "y"}
{"variant_id": "U9C", "class_name": "y"}
{"variant_id": "G27U G42C", "class_name": "n"}
{"variant_id": "U8C G32U", "class_name": "n"}
{"variant_id": "U7G G57U", "class_name": "n"}
{"variant_id": "U33A U58A", "class_name": "n"}
